ASSAY_SUMMARY: viability loss with induced miR-34 in A549 – imaging, A549 dox-inducible miR-34, nuclei and caspase counts, primary screen (AID 1347080)
SETUP_CONDITIONS: A549 miR-34 inducible, Hoechst nuclei count, 48 h; measured here: total cells with miR-34 induction; stronger effect = lower value
PROPERTY_MEASURED: cell count

| COMPOUND | PROPERTY_MEASURED | MEASUREMENT |
| --- | --- | --- |
| Cn1cc(-c2ccc3c(c2)CCN3C(=O)Cc2cccc(C(F)(F)F)c2)c2c(N)ncnc21 | cell count | 4720 |
| CCS(=O)(=O)N1CC(CC#N)(n2cc(-c3ncnc4[nH]ccc34)cn2)C1 | cell count | 8770 |
| Nc1ncnc2c1nc(Br)n2[C@@H]1O[C@@H]2COP(=O)(O)O[C@H]2[C@H]1O | cell count | 8030 |
| CCCCCCCCC#CCCCCCCCC(=O)c1nc2ncccc2o1 | cell count | 6180 |

// cell count lookup, compound = Cc1cc(C)cc(NC(=O)Cc2ccc(OC(C)(C)C(=O)O)cc2)c1 , result: 8990

// cell count lookup, compound = CC\C=C/C=C/C=C/C=C\CCCCCCCC(=O)O , result: 4740

// cell count lookup, compound = O=C1NC(=O)c2cc(Nc3ccc(F)cc3)c(Nc3ccc(F)cc3)cc21 , result: 3220

// cell count lookup, compound = CCCCC[C@H](O)/C=C/[C@H]1C(=O)C[C@H](O)[C@@H]1C/C=C\CCCC(=O)NCCO , result: 6200

// cell count lookup, compound = O=c1cc(N2CCNCC2)oc2c(-c3ccccc3)cccc12 , result: 7780

// cell count lookup, compound = Cc1ccc(S(=O)(=O)OCC(=O)Nc2ccc(C(=O)O)c(O)c2)cc1 , result: 6690

// cell count lookup, compound = Cc1cc2c(F)c(Oc3ncnn4cc(OCC(C)OC(=O)C(C)N)c(C)c34)ccc2[nH]1 (stereo unspecified) , result: 4840

// cell count lookup, compound = CCCCCC(=O)/C=C/[C@H]1[C@H](O)CC(=O)[C@@H]1CCCCCCC(=O)O , result: 5840

// cell count lookup, compound = CNC(=O)[C@H](Cc1c[nH]c2ccccc12)NC(=O)[C@@H](CC(=O)NO)CC(C)C , result: 4790

// cell count lookup, compound = CC/C=C/C[C@H](O)/C=C/[C@H]1[C@H](O)CC(=O)[C@@H]1C/C=C\CCCC(=O)O , result: 5700

----------
ASSAY_SUMMARY: viability loss with induced miR-34 in A549 – imaging, A549 dox-inducible miR-34, nuclei and caspase counts, primary screen (AID 1347080)
SETUP_CONDITIONS: A549 miR-34 inducible, Hoechst nuclei count, 48 h; measured here: relative caspase fold change +Dox/-Dox
Threshold check on fold change: strictly below 0.9 is t; on or above 0.9 is f.

Answered cases to consult:
| COMPOUND | CLASS_NAME |
| --- | --- |
| C=C(N)N[C@@H](CCC(=O)O)C(=O)O | t |
| CCCCCC/C=C\CCCC(=O)CC(=O)N[C@H]1CCOC1=O | f |
| Nc1cc(C(F)(F)F)c(-c2cc(N3CCOCC3)nc(N3CCOCC3)n2)cn1 | f |
| CCc1nc(-c2cccc(C)c2)c(-c2ccnc(NC(=O)c3ccccc3)c2)s1 | f |
| CCCCCCCCNC(=O)Cc1c(C)n(C(=O)c2ccc(Cl)cc2)c2ccc(OC)cc12 | f |

-- ask Regarding C#Cc1cccc(Nc2ncnc3cc(OCCOC)c(OCCO)cc23)c1 , kindly confirm whether its fold change is beneath 0.9.
-- reply t

-- ask Regarding CCCCCOc1ccccc1C(O)CC#CCCCC(=O)OC (configuration not stated) , kindly confirm whether its fold change is beneath 0.9.
-- reply f

-- ask Regarding Cc1c(NC(=O)N2CCOCC2)ccc2c1c1ccccc1n2C(C)C , kindly confirm whether its fold change is beneath 0.9.
-- reply f

-- ask Regarding CCCCC[C@@H](O)CC[C@H]1[C@H](O)CC(=O)[C@@H]1CCCCCCC(=O)O , kindly confirm whether its fold change is beneath 0.9.
-- reply f

-- ask Regarding CCCC[C@H](C)C[C@H](O)/C=C/[C@H]1[C@H](O)CC(=O)[C@@H]1CCCC/C=C/C(=O)O , kindly confirm whether its fold change is beneath 0.9.
-- reply f

-- ask Regarding O=C(O)CCC/C=C\C[C@H]1C(=O)C=C[C@@H]1/C=C/[C@@H](O)COc1ccccc1 , kindly confirm whether its fold change is beneath 0.9.
-- reply f

----------
Recorded fold change by entry
ASSAY_SUMMARY: viability loss with induced miR-34 in A549 – imaging, A549 dox-inducible miR-34, nuclei and caspase counts, primary screen (AID 1347080)
SETUP_CONDITIONS: A549 miR-34 inducible, Hoechst nuclei count, 48 h; measured here: relative caspase fold change +Dox/-Dox
Please give the numeric answer without any surrounding text.

Examples from the recorded data:
| MOLECULE | MEASUREMENT |
| --- | --- |
| COC(=O)c1sccc1S(=O)(=O)Nc1ccc(Nc2ccccc2)cc1OC | 1.31 |
| O=P(O)(O)O[C@H]1[C@H](O)[C@@H](O)[C@H](OP(=O)(O)O)[C@@H](OP(=O)(O)O)[C@H]1O | 0.768 |
| CCCCCC(=O)/C=C/[C@@H]1[C@@H](CCCCCCC(=O)O)[C@@H](O)C[C@H]1O | 1.29 |
| CCCCCCN(CCCCCC)C(=O)Cc1c(-c2ccc(Cl)cc2)[nH]c2ccc(Cl)cc12 | 0.984 |
| CCCCCCCC/C=C\CCCCCCCCCCCC(N)=O | 0.823 |
| O=C(O)CCCCC(CCSCc1ccccc1)SCc1ccccc1 (stereo not drawn) | 0.838 |
| N[C@H](C(=O)O)c1ccc(C(=O)O)c(O)c1 | 0.823 |
| CCCCc1nn(-c2ccccc2C(F)(F)F)c(=O)n1Cc1ccc(-c2ccccc2S(=O)(=O)NC(=O)c2sccc2C)cc1 | 1.21 |
| O=C1NN(C(=O)Nc2ccc(Br)cc2)[C@@H](c2ccccc2)[C@@H]1c1ccccc1 | 0.737 |
| CCCCC[C@H](O)/C=C/[C@H]1C2CC(CO2)[C@@H]1CCCCCCC(=O)O (stereo partly drawn) | 0.43 |

// fold change lookup, molecule = O[C@H](CNC[C@@H](O)[C@H]1CCc2cc(F)ccc2O1)[C@@H]1CCc2cc(F)ccc2O1 , result: 0.967

// fold change lookup, molecule = Cc1cnc(-c2cnc(NCCNc3ccc(C#N)cn3)nc2-c2ccc(Cl)cc2Cl)[nH]1 , result: 0.884

// fold change lookup, molecule = CC(C)[C@H]1c2ccc(F)cc2CC[C@@]1(CCN(C)CCCc1nc2ccccc2[nH]1)OC(=O)C1CC1 , result: 1.77

// fold change lookup, molecule = S=C(NCc1ccc2c(c1)OCO2)N1CCN(c2ncnc3c2oc2ccccc23)CC1 , result: 1.07

// fold change lookup, molecule = N#CCNC(=O)c1ccc(-c2ccnc(Nc3ccc(N4CCOCC4)cc3)n2)cc1 , result: 0.89

----------
ASSAY_SUMMARY: growth inhibition, single agent and combos, cell-based, chromothripsis tumors, cisplatin or BGB combos (AID 1671450);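 further: cells exposed to compound for four days; 0% = vehicle DMSO and 100% = cell killing by high DMSO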
SETUP_CONDITIONS: HDN33 neuroblastoma cells, BGB combo, at 5 µM, stronger effect = higher value
Think of 90% as a floor: if inhibition stands on it or above, it is Y; beneath it, N.

| SUBSTANCE_SMILES | CLASS_NAME |
| --- | --- |
| CN(C)CCN1C(=O)c2cccc3cc(N)cc(c23)C1=O | N |
| CN(C)C/C=C/C(=O)Nc1ccc(C(=O)Nc2cccc(Nc3ncc(Cl)c(-c4c[nH]c5ccccc45)n3)c2)cc1 | Y |
| Nc1ccc(F)cc1NC(=O)c1ccc(CNC(=O)/C=C/c2cccnc2)cc1 | N |
| NC(=O)c1nc(F)c[nH]c1=O | N |
| CN(C)Cc1c(C(=O)NCCOc2ccc(C(=O)NO)cc2)oc2ccccc12 | Y |

-- ask Textbook exercise: given the entry O=C(/C=C/c1cccc(S(=O)(=O)Nc2ccccc2)c1)NO , state whether its inhibition is greater than or equal to 90%.
-- reply Y

-- ask Textbook exercise: given the entry O=C(O)CO.[NH2-].[NH2-].[Pt+2] , state whether its inhibition is greater than or equal to 90%.
-- reply N

-- ask Textbook exercise: given the entry CN(C)c1ccc(C(=O)NCCCCCCC(=O)NO)cc1 , state whether its inhibition is greater than or equal to 90%.
-- reply Y

-- ask Textbook exercise: given the entry Nc1nc2n[nH]nc2c(=O)[nH]1 , state whether its inhibition is greater than or equal to 90%.
-- reply N

-- ask Textbook exercise: given the entry CO[C@H]1/C=C/O[C@@]2(C)Oc3c(C)c(O)c4c(O)c(c(/C=N\N5CCN(C6CCCC6)CC5)c(O)c4c3C2=O)NC(=O)/C(C)=C\C=C\[C@H](C)[C@H](O)[C@@H](C)[C@@H](O)[C@@H](C)[C@H](OC(C)=O)[C@@H]1C , state whether its inhibition is greater than or equal to 90%.
-- reply N

-- ask Textbook exercise: given the entry O=c1[nH]cnc2ccccc12 , state whether its inhibition is greater than or equal to 90%.
-- reply N

-- ask Textbook exercise: given the entry CCCCc1nc2cc(/C=C/C(=O)NO)ccc2n1CCN(CC)CC , state whether its inhibition is greater than or equal to 90%.
-- reply Y

-- ask Textbook exercise: given the entry O=C(COc1cccc2c(=O)[nH]ccc12)c1ccccc1 , state whether its inhibition is greater than or equal to 90%.
-- reply N

-- ask Textbook exercise: given the entry c1cc(Nc2cc(C3CC3)[nH]n2)nc(Nc2ccc3nc[nH]c3c2)n1 , state whether its inhibition is greater than or equal to 90%.
-- reply N

-- ask Textbook exercise: given the entry C=C1[C@H](CO)[C@@H](O)C[C@@H]1n1cnc2c(=O)[nH]c(N)nc21 , state whether its inhibition is greater than or equal to 90%.
-- reply N

-- ask Textbook exercise: given the entry Cc1ccc([N+](=O)[O-])cc1S(=O)(=O)N(C)/N=C/c1cnc2ccc(Br)cn12 , state whether its inhibition is greater than or equal to 90%.
-- reply Y

-- ask Textbook exercise: given the entry O=c1cc(N2CCOCC2)oc2c(-c3cccc4c3sc3ccccc34)cccc12 , state whether its inhibition is greater than or equal to 90%.
-- reply N
